# assay-procedure: Steady-state plasma pharmacokinetics of intravenous polymyxin B in critically ill patients (non-compartmental analysis)
# Type: in vivo, human
# condition-parameters: human, iv, young group <65 years (n = 6), per total body weight, iv, steady state, non-compartmental, mean ± SD, SD, read-out: Clearance per TBW (converted)
Where a SMILES comes first, the peptide text is derived from it. Bridges are numbered along the chain shown (N, C = ends). [ ]: non-standard residue; d: D form. The star is where a group is joined. X1 = CC[C@H](C)CCCCC(=O)*; Dab = NCC[C@H](N)C(=O)O
endpoint: clearance (mL/min/kg)
One number for each entry, in mL/min/kg.

Q: Value lookup for clearance; key = CC[C@H](C)CCCCC(=O)N[C@@H](CCN)C(=O)N[C@H](C(=O)N[C@@H](CCN)C(=O)N[C@H]1CCNC(=O)[C@H]([C@@H](C)O)NC(=O)[C@H](CCN)NC(=O)[C@H](CCN)NC(=O)[C@H](CC(C)C)NC(=O)[C@@H](Cc2ccccc2)NC(=O)[C@H](CCN)NC1=O)[C@@H](C)O [polymyxin B] (X1-[Dab]T[Dab][Dab][Dab][dF]L[Dab][Dab]T; lactam 4-C)
Result: 0.617

Values from paper PMC10867212
